run description: In vitro cytotoxicity assay (MTT cell viability) in HepG2 cells
Type: cell-based, human
assay conditions: human
Method: To evaluate antiviral selectivity, the cytotoxic activity of each compound was determined using a standard cell viability assay performed on the parental HepG2 cell line. Cell viability was determined by measuring the conversion of 3-(4,5-dimethylthiazol-2-yl)-2,5-diphenyltetrazolium bromide (MTT) to the insoluble formazan salt crystal that occurs in live cells. […] All absorbance values were converted to a percentage of the signal obtained from the vehicle treated controls. […]
readout kind: CC50 at 7 days

Some molecules with known CC50 at 7 days results, for comparison:
[
  {
    "smiles text": "Cc1cc(NC(=O)c2cc(C(=O)C(=O)NC(C)(C)C)n3c2CCCC3)cc(F)c1F",
    "result": "5 to 30 µM"
  },
  {
    "smiles text": "Cc1noc([C@@H](C)NC(=O)C(=O)c2c(Cl)c(C(=O)Nc3ccnc(F)c3)c3n2CCCC3)n1",
    "result": "> 30 µM"
  }
]

# evaluate next
Looking up "Cc1cc(NC(=O)c2c(C)c(C(=O)C(=O)N[C@H]3CC[C@H](O)CC3)n(CCF)c2C)ccc1F" , I found its CC50 at 7 days recorded as > 30 µM
